Hello, the source for this data is ChEMBL document CHEMBL1133613, in case you need it.

Molecular target: UniProt:P08909
Sequence (P08909 whole entry): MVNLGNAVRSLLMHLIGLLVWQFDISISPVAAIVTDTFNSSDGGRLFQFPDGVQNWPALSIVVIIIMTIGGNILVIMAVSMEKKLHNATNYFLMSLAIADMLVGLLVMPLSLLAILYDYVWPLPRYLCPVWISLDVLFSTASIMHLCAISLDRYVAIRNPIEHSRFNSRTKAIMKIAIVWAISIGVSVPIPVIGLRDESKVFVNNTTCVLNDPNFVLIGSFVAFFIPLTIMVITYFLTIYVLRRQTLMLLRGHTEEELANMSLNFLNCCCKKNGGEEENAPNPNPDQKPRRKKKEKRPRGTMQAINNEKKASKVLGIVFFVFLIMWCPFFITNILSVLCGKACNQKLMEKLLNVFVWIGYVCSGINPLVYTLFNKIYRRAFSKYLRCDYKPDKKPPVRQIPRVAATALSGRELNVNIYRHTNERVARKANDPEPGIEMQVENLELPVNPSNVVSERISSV
I'd appreciate it if you could supply pKi values for the items below.
Keep it numeric: pKi is minus log10 of the concentration in mol/L.

Input: // fetch pKi given entry "COc1cc(CCCc2ccccc2)c(OC)cc1CCN"
Output: 7.55

Input: // fetch pKi given entry COc1cc(CC(C)N)c(OC)cc1CCCCc1ccccc1 (centres undefined)
Output: 8.22

Input: // fetch pKi given entry CC(N)Cc1ccc(CCCc2ccccc2)cc1 (centres undefined)
Output: 6.28

Input: // fetch pKi given entry COc1cc(CC(C)N)c(OC)cc1CCCc1ccc(Cl)cc1 (centres undefined)
Output: 7.80

Input: // fetch pKi given entry COc1c(CCCc2ccccc2)ccc(CC(C)N)c1OC (centres undefined)
Output: 7.10

Input: // fetch pKi given entry "COc1ccc(OC)c(CCN)c1"
Output: 5.26

Input: // fetch pKi given entry COc1cc(CC(C)N)c(OC)cc1CCc1ccccc1 (centres undefined)
Output: 6.85

Input: // fetch pKi given entry "COc1cc(CCCCc2ccccc2)c(OC)cc1CCN"
Output: 7.60

Input: // fetch pKi given entry COc1cc(CC(C)N)cc(OC)c1Br (centres undefined)
Output: 6.24

Input: // fetch pKi given entry COc1ccc(CCCc2cc(OC)c(CC(C)N)cc2OC)cc1 (centres undefined)
Output: 7.62
